Assay read-out pIC50; system under study: full-length wt-BTK enzyme (Homo sapiens (Human)).
Sequence (Q06187 whole entry): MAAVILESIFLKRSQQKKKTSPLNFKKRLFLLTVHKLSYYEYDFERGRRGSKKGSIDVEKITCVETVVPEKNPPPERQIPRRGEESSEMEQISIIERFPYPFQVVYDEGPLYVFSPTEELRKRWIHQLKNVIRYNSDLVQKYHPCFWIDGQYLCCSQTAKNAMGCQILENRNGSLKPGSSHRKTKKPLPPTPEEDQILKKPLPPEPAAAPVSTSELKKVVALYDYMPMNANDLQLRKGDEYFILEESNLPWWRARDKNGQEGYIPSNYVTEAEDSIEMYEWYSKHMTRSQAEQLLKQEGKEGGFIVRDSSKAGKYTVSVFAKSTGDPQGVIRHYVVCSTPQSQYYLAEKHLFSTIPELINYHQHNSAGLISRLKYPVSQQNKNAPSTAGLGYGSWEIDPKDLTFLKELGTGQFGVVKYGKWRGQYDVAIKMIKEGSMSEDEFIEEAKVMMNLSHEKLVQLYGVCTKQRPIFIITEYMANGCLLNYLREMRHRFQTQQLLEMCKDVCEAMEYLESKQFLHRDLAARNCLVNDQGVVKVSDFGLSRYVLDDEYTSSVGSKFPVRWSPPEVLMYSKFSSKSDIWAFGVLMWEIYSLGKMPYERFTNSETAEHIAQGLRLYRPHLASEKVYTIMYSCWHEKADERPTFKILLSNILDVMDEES
pIC50: −log10 of the molar value.

Study these solved cases before continuing.
Nc1ncc2c3c1c(-c1ccc(C(=O)Nc4cc(C(F)(F)F)ccn4)cc1)nn3[C@@H]1CCC[C@H](C1)C(=O)NCCC/C=C\C2 [Example 84b] | 7.30 to 8.30
C[C@@H]1CCn2nc(-c3ccc(C(=O)Nc4cc(C(F)(F)F)ccn4)cc3)c3c(N)ncc(c32)CC=CCCCCC(=O)N1 | 7.30 to 8.30
CC(=O)N1CCC/C=C/c2cnc(N)c3c(-c4ccc(C(=O)Nc5cc(C(F)(F)F)ccn5)cc4)nn(c23)[C@@H]2CCC[C@H](C2)NC(=O)C1 | > 8.30
C[C@@H]1CC(=O)N[C@@H]2CC[C@H](C2)n2nc(-c3ccc(C(=O)Nc4cc(C(F)(F)F)ccn4)cc3)c3c(N)ncc(c32)/C=C/CCN1 | > 8.30
Nc1ncc2c3c1c(-c1ccc(C(=O)Nc4cc(C(F)(F)F)ccn4)cc1)nn3[C@@H]1CCC[C@H](C1)NC(=O)COC/C=C/2 | > 8.30
N#Cc1ccnc(NC(=O)c2ccc(-c3nc4n5c(cnc(N)c35)/C=C/COCCC(=O)N[C@@H]3CCC[C@@H]4C3)cc2)c1 | > 8.30
C[C@@H]1CCn2nc(-c3ccc(C(=O)Nc4cc(C(F)(F)F)ccn4)cc3)c3c(N)ncc(c32)/C=C/C[S+]([O-])CC(=O)N1 (stereo partly drawn) | > 8.30
Nc1ncc2c3c1c(-c1ccc(C(=O)Nc4cc(C(F)(F)F)ccn4)cc1)nn3[C@@H]1CCC[C@H](C1)NC(=O)CCCCCC/C=C/C2 [Example 103a] | > 8.30

Record pIC50 for all entries; do not skip any.
1. CN1C/C=C/c2cnc(N)c3c(-c4ccc(C(=O)Nc5cc(C(F)(F)F)ccn5)cc4)nn(c23)[C@@H]2CCC[C@H](C2)NC(=O)CC1
2. N#Cc1ccnc(NC(=O)c2ccc(-c3nn4c5c(cnc(N)c35)/C=C/CCOCCC(=O)N[C@@H]3CCC[C@@H]4C3)cc2)c1
3. Nc1ncc2c3c1c(-c1ccc(C(=O)Nc4cc(C(F)(F)F)ccn4)cc1)nn3[C@@H]1CCC[C@H](C1)NC(=O)CCC/C=C/C2 [Example 94a]
4. C[C@@H]1CC(=O)N[C@@H]2CCC[C@H](C2)n2nc(-c3ccc(C(=O)Nc4cc(F)ccn4)cc3)c3c(N)ncc(c32)/C=C/CCN1

Result:
1: > 8.30; 2: > 8.30; 3: 7.30 to 8.30; 4: > 8.30
